Values from patent US12509457B2

# TARGET ENTITY: SIK2 (Homo sapiens)
# Sequence (Q9H0K1 whole entry): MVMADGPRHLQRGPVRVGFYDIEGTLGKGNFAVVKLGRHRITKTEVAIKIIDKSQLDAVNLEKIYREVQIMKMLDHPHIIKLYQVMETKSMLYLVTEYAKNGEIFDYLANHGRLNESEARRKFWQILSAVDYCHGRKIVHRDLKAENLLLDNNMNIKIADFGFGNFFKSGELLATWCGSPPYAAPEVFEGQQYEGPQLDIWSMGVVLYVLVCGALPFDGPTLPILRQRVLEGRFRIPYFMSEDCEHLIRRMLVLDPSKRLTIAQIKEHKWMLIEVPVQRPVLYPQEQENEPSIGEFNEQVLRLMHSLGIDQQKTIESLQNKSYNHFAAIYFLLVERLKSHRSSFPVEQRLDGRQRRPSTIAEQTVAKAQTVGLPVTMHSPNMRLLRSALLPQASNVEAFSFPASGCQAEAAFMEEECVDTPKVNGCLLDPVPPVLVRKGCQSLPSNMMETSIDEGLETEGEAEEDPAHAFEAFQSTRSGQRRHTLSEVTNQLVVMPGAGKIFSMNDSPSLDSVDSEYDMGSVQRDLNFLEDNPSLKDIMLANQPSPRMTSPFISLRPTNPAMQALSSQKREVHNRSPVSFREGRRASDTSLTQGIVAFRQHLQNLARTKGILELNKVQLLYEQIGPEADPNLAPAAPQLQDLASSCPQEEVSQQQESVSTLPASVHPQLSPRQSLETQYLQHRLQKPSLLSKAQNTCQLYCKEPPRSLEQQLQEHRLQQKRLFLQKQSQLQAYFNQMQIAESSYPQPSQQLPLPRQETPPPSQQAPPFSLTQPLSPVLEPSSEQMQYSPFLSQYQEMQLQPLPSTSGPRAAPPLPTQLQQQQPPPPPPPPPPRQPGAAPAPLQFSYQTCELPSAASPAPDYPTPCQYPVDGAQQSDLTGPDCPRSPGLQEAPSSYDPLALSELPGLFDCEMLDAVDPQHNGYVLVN
# ASSAY COMMENT: SIK2 kinase assay, IMAP fluorescence polarization
# Assay type: biochemical
// thresholds for Ki classes: Low = under 0.8 nM, Mid = from 0.8 nM up to 100 nM, High = 100 nM and over

Exercise: For this compound, which bin applies? `Cc1cccc(F)c1N1Cc2cnc(N)cc2N(C2CCN(C)CC2)C1=O`
Key: Low

Exercise: Hi there! Could you help me figure out the category for `Cc1cccc(F)c1N1Cc2cnc(N)cc2N(C2CCNCC2)C1=O` please?
Key: Low

Exercise: Into which bin does this compound go? `CCN1CCC(N2C(=O)N(c3c(C)cccc3F)Cc3cncnc32)CC1`
Key: High

Exercise: Tag the class for `Cc1cccc(Cl)c1N1Cc2cnc(N)nc2N(C2CCNCC2)C1=O`
Key: Mid

Exercise: Hi there! Could you help me figure out the category for `Cc1cccc(F)c1N1Cc2cncnc2N(C2CCN(C)CC2)C1=O` please?
Key: High

Exercise: The entry to classify is `Cc1cccc(F)c1N1Cc2cnccc2N(C2CCNCC2)C1=O` ; which class holds it?
Key: Mid

Exercise: Hey, which category is `CCN1CCC(N2C(=O)N(c3c(C)cccc3Cl)Cc3cncnc32)CC1` in, do you know?
Key: High

Exercise: Class (by measured Ki) for `CCN1CCC(N2C(=O)N(c3c(C)cccc3Cl)Cc3cnccc32)CC1`
Key: Mid

----------
I'd appreciate it if you could supply pKi values for the items below.
# TARGET ENTITY: EPHA2 (Homo sapiens)
# Sequence (P29317 24-976): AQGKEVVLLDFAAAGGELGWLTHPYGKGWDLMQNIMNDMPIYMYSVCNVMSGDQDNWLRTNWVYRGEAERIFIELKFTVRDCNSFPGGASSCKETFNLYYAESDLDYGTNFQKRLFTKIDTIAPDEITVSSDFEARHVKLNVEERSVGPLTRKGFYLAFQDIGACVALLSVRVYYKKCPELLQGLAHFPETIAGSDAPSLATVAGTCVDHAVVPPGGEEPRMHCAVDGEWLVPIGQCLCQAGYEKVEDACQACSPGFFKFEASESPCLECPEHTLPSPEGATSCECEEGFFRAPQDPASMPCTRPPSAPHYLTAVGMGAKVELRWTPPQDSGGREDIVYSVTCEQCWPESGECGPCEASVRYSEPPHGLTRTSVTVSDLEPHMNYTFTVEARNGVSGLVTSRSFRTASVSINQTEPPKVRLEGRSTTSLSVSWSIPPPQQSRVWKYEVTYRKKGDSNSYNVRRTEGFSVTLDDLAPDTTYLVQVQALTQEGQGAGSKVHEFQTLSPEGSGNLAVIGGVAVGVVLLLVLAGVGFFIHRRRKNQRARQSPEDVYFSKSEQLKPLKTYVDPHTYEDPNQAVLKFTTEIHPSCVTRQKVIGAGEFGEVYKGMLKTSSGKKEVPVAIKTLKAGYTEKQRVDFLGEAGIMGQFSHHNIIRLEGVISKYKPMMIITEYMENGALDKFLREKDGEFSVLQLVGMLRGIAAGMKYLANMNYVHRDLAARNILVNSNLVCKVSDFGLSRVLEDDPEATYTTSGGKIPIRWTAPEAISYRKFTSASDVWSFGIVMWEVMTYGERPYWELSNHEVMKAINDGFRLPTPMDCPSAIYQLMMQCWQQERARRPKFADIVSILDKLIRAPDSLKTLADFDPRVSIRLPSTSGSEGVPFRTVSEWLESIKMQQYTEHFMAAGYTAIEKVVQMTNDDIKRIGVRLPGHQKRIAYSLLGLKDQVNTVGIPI
# ASSAY COMMENT: EPHA2 kinase assay, IMAP fluorescence polarization
# Type: biochemical
# CONDITION SET: 50 or 100 μM ATP; average
Please treat pKi as minus the base-10 logarithm of the molar concentration.

Memo: Cc1cccc(F)c1N1Cc2cnc(N)cc2N([C@H]2CCC[C@H](N)C2)C1=O (relative stereo) , reported pKi: 8.14

Briefly, pKi measured for `Cc1cccc(F)c1N1Cc2cnc(N)cc2N([C@H]2CC[C@H](N)CC2)C1=O` : 7.33

The reported value for `Cc1cccc(F)c1N1Cc2cnccc2N([C@H]2CCCCNC2)C1=O` in terms of pKi is 5.82

Note to self: pKi recorded for Cc1cccc(F)c1N1Cc2cnc(N)cc2N([C@H]2CCC[C@@H](N(C)C)C2)C1=O (relative stereo) was 7.41

Documented pKi of `Cc1cccc(F)c1N1Cc2cnc(N)cc2N([C@@H]2CCCNCC2)C1=O` : 7.51

Field pKi (entry `Cc1cccc(F)c1N1Cc2cnc(N)nc2N([C@@H]2CCNC2)C1=O` ) reads 6.90

Record `Cc1cccc(Cl)c1N1Cc2cnc(N)nc2N(C2CNC2)C1=O` , field pKi: 6.75

Form: molecule = `Cc1cccc(F)c1N1Cc2cnc(N)nc2N([C@H]2CCNC2)C1=O` ; pKi = 6.83

Form: molecule = `Cc1cccc(F)c1N1Cc2cnc(N)nc2N(CC2CCNCC2)C1=O` ; pKi = 7.55

Record summary for `Cc1cccc(F)c1N1Cc2cnc(N)nc2N([C@H]2CCCCNC2)C1=O` : reported pKi = 7.13

Entry under test: `CN[C@H]1CC[C@H](N2C(=O)N(c3c(C)cccc3F)Cc3cnc(N)cc32)CC1` . Its pKi was 7.01

What the record says about Cc1cccc(F)c1N1Cc2cnc(N)nc2N(C2CCC(N)C2)C1=O (centres unmarked) : pKi is 8.04

// pKi lookup, molecule = `Cc1cccc(F)c1N1Cc2cnc(N)nc2N([C@H]2CCCNCC2)C1=O` , result: 7.83

get_value(item= `Cc1cccc(F)c1N1Cc2cnc(N)nc2N([C@@H]2CCCNCC2)C1=O` , readout=pKi) returns 7.65

The reported value for Cc1cccc(F)c1N1Cc2cnc(N(C)C)cc2N([C@H]2CCC[C@@H](N(C)C)C2)C1=O (relative stereo) in terms of pKi is 5.19

Data point: `Cc1cccc(F)c1N1Cc2cnc(N)nc2N([C@H]2CCCN(C)C2)C1=O` ; pKi = 7.59

Documented pKi of `Cc1cccc(F)c1N1Cc2cnc(N)nc2N([C@H]2CCCNC2)C1=O` : 7.05

----------
# TARGET ENTITY: SIK1 (Homo sapiens)
# Sequence (P57059 whole entry): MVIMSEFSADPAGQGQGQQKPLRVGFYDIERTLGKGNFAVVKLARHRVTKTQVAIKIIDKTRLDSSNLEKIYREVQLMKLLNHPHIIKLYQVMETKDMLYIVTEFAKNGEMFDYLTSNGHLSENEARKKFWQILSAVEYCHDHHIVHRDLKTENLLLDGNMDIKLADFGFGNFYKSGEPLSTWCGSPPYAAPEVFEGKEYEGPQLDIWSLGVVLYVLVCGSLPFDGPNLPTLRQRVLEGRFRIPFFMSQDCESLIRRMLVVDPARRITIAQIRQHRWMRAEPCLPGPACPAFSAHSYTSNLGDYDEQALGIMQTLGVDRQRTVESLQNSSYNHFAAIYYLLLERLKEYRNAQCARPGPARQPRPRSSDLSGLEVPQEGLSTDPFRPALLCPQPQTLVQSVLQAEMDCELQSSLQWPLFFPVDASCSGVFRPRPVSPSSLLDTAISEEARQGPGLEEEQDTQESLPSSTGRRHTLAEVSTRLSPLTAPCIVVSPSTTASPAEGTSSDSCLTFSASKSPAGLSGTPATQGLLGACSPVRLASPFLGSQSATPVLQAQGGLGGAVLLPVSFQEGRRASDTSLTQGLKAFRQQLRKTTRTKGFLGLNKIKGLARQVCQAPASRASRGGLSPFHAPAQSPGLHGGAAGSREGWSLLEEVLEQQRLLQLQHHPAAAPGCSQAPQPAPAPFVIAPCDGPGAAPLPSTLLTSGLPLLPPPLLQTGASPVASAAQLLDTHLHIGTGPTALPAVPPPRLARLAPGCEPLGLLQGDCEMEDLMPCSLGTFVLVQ
# ASSAY COMMENT: SIK1 kinase assay, IMAP fluorescence polarization
# Assay type: biochemical
OUTCOME MEASURE: Ki

The recorded Ki for `Cc1cccc(F)c1N1Cc2cnccc2N(C2CCNCC2)C1=O` is 12 nM

response.value for `Cc1cccc(Cl)c1N1Cc2cnc(N)nc2N(C2CCNCC2)C1=O` (field: Ki) = 6.23 nM

Lookup result for `Cc1cccc(F)c1N1Cc2cnc(N)nc2N(C2CCNCC2)C1=O` ; measured Ki: 2.36 nM

Documented Ki of `Cc1cccc(Cl)c1N1Cc2cncnc2N(C2CCN(C)CC2)C1=O` : 397 nM

For reference, reported Ki for `CCN1CCC(N2C(=O)N(c3c(C)cccc3Cl)Cc3cnccc32)CC1` stands at 34.1 nM

What the record says about `Cc1cccc(Cl)c1N1Cc2cncnc2N(C2CCNCC2)C1=O` : Ki is 273 nM

// recorded Ki for `CCN1CCC(N2C(=O)N(c3c(C)cccc3F)Cc3cncnc32)CC1` : 635 nM

// field: Ki; key: `Cc1cccc(F)c1N1Cc2cnccc2N(C2CCN(C)CC2)C1=O` ; value = 20.6 nM

Form field Ki, entry `Cc1cccc(F)c1N1Cc2cnc(N)nc2N(C2CCN(C)CC2)C1=O` : 9.73 nM

In plain terms, `Cc1cccc(Cl)c1N1Cc2cnc(N)nc2N(C2CCN(C)CC2)C1=O` has a documented Ki of 10.6 nM

Looking up `Cc1cccc(F)c1N1Cc2cncnc2N(C2CCNCC2)C1=O` , I see its Ki listed as 223 nM

Form field Ki, entry `Cc1cccc(Cl)c1N1Cc2cnccc2N(C2CCNCC2)C1=O` : 10.2 nM

Just so you know, measured Ki for `Cc1cccc(Cl)c1N1Cc2cnc(N)cc2N(C2CCNCC2)C1=O` came out at 3.35 nM

# compound `Cc1cccc(F)c1N1Cc2cnc(N)cc2N(C2CCNCC2)C1=O` ; its Ki = 1.68 nM

Reported Ki ( `Cc1cccc(Cl)c1N1Cc2cnccc2N(C2CCN(C)CC2)C1=O` ) = 14.7 nM

According to the records, this compound `CCN1CCC(N2C(=O)N(c3c(C)cccc3Cl)Cc3cncnc32)CC1` displays Ki of 207 nM

Consider `Cc1cccc(F)c1N1Cc2cnc(N)cc2N(C2CCN(C)CC2)C1=O` . Its measured Ki is 0.632 nM

The recorded Ki for entry `CCN1CCC(N2C(=O)N(c3c(C)cccc3F)Cc3cnccc32)CC1` equals 33.2 nM

response.value for `Cc1cccc(Cl)c1N1Cc2cnc(N)cc2N(C2CCN(C)CC2)C1=O` (field: Ki) = 3.21 nM

Lookup result for `CCN1CCC(N2C(=O)N(c3c(C)cccc3F)Cc3cnc(N)nc32)CC1` ; measured Ki: 6.61 nM

Data point: `Cc1cccc(F)c1N1Cc2cncnc2N(C2CCN(C)CC2)C1=O` ; Ki = 586 nM

----------
# TARGET ENTITY: SIK1 (Homo sapiens)
# ASSAY COMMENT: SIK1 kinase assay, IMAP fluorescence polarization
# Type: biochemical
# CONDITION SET: 50 or 100 μM ATP; average; read-out: SIK1-AVERAGE Ki
OUTCOME MEASURE: Ki

Just so you know, measured Ki for `Cc1cccc(F)c1N1Cc2cnc(N)cc2N([C@@H]2CCCN(C)C2)C1=O` came out at 0.84 nM

Short answer for Cc1cccc(F)c1N1Cc2cnc(N)nc2N(C2CCC(N)C2)C1=O (stereo not drawn) : Ki was 0.612 nM

For this molecule ( `Cc1cccc(F)c1N1Cc2cnc(N)nc2N([C@H]2CCCNC2)C1=O` ), measured Ki is 1.26 nM

Value of measured Ki for the entry `Cc1cccc(F)c1N1Cc2cnc(N)cc2N([C@@H]2CCCNCC2)C1=O` : 0.409 nM

get_value(item= `Cc1cccc(F)c1N1Cc2cnc(N)cc2N([C@H]2CC[C@@H](N)CC2)C1=O` , readout=Ki) returns 0.743 nM

Lab note: measured Ki of `CNc1cc2c(cn1)CN(c1c(C)cccc1F)C(=O)N2[C@H]1CC[C@@H](N(C)C)CC1` was 3.93 nM

// `Cc1cccc(F)c1N1Cc2cnc(N)cc2N([C@@H]2CCCNC2)C1=O` : Ki value = 1.26 nM

Record summary for `Cc1cccc(Cl)c1N1Cc2cnc(N)cc2N(C2CNC2)C1=O` : reported Ki = 7.76 nM

Entry `Cc1cccc(F)c1N1Cc2cnc(N)nc2N([C@H]2CCCN(C)C2)C1=O` — recorded Ki = 2.5 nM

----------
# TARGET ENTITY: SIK3 (Homo sapiens, UniProt Q9Y2K2)
# Sequence (Q9Y2K2 whole entry): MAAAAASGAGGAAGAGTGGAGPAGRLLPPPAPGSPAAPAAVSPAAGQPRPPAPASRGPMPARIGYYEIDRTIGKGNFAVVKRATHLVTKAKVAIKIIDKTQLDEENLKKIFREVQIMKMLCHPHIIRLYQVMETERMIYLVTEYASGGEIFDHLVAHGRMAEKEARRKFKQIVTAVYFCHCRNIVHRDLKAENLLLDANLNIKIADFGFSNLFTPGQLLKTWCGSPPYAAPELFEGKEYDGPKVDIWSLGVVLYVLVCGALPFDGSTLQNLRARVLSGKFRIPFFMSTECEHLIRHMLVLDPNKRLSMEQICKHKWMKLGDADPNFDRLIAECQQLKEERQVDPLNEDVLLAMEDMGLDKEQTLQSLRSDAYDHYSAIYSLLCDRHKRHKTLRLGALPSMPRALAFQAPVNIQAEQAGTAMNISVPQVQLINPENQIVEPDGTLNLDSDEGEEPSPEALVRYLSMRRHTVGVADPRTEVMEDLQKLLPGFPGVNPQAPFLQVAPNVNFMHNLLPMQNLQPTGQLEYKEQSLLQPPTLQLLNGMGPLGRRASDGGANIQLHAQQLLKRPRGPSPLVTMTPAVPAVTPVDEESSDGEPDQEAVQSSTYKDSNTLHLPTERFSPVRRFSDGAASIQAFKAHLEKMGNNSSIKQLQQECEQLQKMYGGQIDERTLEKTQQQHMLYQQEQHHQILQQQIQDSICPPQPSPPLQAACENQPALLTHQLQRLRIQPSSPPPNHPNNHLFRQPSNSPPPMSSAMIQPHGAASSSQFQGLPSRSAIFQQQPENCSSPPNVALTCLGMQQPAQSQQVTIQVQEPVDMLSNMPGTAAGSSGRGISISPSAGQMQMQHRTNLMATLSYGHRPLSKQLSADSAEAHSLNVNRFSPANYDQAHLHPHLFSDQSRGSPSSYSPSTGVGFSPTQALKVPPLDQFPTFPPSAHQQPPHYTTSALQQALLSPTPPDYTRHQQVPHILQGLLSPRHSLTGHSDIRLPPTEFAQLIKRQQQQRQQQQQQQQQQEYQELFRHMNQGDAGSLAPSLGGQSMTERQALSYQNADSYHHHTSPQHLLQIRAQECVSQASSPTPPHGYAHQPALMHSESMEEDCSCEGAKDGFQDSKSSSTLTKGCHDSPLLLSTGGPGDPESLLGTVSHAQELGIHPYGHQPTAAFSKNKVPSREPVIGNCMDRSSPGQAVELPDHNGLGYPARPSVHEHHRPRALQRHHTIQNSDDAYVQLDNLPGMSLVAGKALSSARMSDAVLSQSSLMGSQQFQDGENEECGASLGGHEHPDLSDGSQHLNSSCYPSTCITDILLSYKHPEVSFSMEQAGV
# ASSAY COMMENT: SIK3 kinase assay, IMAP fluorescence polarization
# Format: biochemical
Use Ki to assign classes; range list: 0 (below 20 nM), 1 (20 nM to below 100 nM), 2 (100 nM or more)

Exercise: State the band of `Cc1cccc(F)c1N1Cc2cncnc2N(C2CCNCC2)C1=O`
Key: 2

Exercise: Form field 'band' for `Cc1cccc(Cl)c1N1Cc2cnccc2N(C2CCN(C)CC2)C1=O`
Key: 2

Exercise: Which Ki band matches `Cc1cccc(F)c1N1Cc2cnc(N)cc2N(C2CCN(C)CC2)C1=O` ?
Key: 0

Exercise: Returns: class label. Input: `Cc1cccc(Cl)c1N1Cc2cnc(N)nc2N(C2CCN(C)CC2)C1=O`
Key: 1

Exercise: Please report the category associated with `CCN1CCC(N2C(=O)N(c3c(C)cccc3F)Cc3cncnc32)CC1` , nothing else.
Key: 2

Exercise: Classify this compound: `CCN1CCC(N2C(=O)N(c3c(C)cccc3F)Cc3cnccc32)CC1`
Key: 1

Exercise: Class label required: `Cc1cccc(F)c1N1Cc2cnccc2N(C2CCNCC2)C1=O`
Key: 1

Exercise: Determine which band this compound sits in: `Cc1cccc(Cl)c1N1Cc2cnc(N)cc2N(C2CCNCC2)C1=O`
Key: 0

Exercise: Each compound maps to one class by Ki. Which class for `Cc1cccc(Cl)c1N1Cc2cnc(N)nc2N(C2CCNCC2)C1=O` ?
Key: 0

Exercise: Hey, which category is `CCN1CCC(N2C(=O)N(c3c(C)cccc3Cl)Cc3cncnc32)CC1` in, do you know?
Key: 2

Exercise: Which band does `CCN1CCC(N2C(=O)N(c3c(C)cccc3Cl)Cc3cnccc32)CC1` fall in?
Key: 2

Exercise: Each compound maps to one class by Ki. Which class for `CCN1CCC(N2C(=O)N(c3c(C)cccc3F)Cc3cnc(N)nc32)CC1` ?
Key: 0

Exercise: Exam item: assign `Cc1cccc(F)c1N1Cc2cnc(N)nc2N(C2CCN(C)CC2)C1=O` to the correct category.
Key: 0

Exercise: Exam item: assign `Cc1cccc(F)c1N1Cc2cnc(N)nc2N(C2CCNCC2)C1=O` to the correct category.
Key: 0

Exercise: Place this compound in its band: `Cc1cccc(F)c1N1Cc2cnccc2N(C2CCN(C)CC2)C1=O`
Key: 1
